// data source = PubChem BioAssay (NCATS)

assay.comment: qHTS assay for small molecule agonists of the antioxidant response element (ARE) signaling pathway measured by Nrf2-dependant transcriptional activity (AID 720636);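 note: HepG2 cells with an ARE-driven luciferase reporter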
condition.details: ARE-luc HepG2, Nrf2 luciferase reporter, 16 h; series mostly up to 92.4 µM
Records with an inconclusive call do not appear. Active and inactive are the calls of the source. Calls come from the whole dose curve; as a rule, active = well fitted activation curve with a large enough effect in the repeat runs; inconclusive = weak or mixed curves; inactive = flat fitted curve, though single readings scatter.
readout.label: outcome

{"compound": "CCC(C)(C)c1ccc(O)cc1", "outcome": "inactive"}
{"compound": "Nc1ccccc1", "outcome": "inactive"}
{"compound": "COC(=O)C(c1ccccc1)C1CCCCN1 (stereo not drawn)", "outcome": "inactive"}
{"compound": "Oc1ccc(Cl)cc1", "outcome": "inactive"}
{"compound": "COP(=S)(OC)Oc1ccc(SC)c(C)c1", "outcome": "inactive"}
{"compound": "COc1cc(OC)c(OC)cc1C=O", "outcome": "inactive"}

The value of outcome measured for the compound [N-]=[N+]=CC(=O)OC[C@H](N)C(=O)O turned out to be inactive

The recorded outcome for entry NCCc1ccc(O)cc1 equals inactive

Per the record, CC(C)(C)c1ccc(O)cc1 has outcome of inactive

// field: outcome; key: Nc1ccccc1C(=O)O ; value = inactive

Record CC1(C)C(C=C(Cl)Cl)C1C(=O)OC(C#N)c1cccc(Oc2ccccc2)c1 (stereo not drawn) , field outcome: inactive

So for C[C@]12CCC(=O)C=C1CC[C@@H]1[C@@H]2CC[C@@]2(C)[C@H]1CC[C@]2(C)O , the logged outcome turned out to be inactive

According to the records, this compound O=C(O)CCCc1ccc(N(CCCl)CCCl)cc1 displays outcome of inactive

Just so you know, measured outcome for COP(=S)(OC)Oc1cc(Cl)c(Cl)cc1Cl came out at inactive

// field: outcome; key: Nc1ccc([As](=O)(O)O)cc1 ; value = inactive

So, COP(=S)(OC)SCN1C(=O)c2ccccc2C1=O ? Its outcome was inactive

get_value(item= C[C@]12CCC(=O)C=C1CC[C@@H]1[C@@H]2CC[C@]2(C)C(=O)CC[C@@H]12 , readout=outcome) returns inactive

CCOC(=O)CC(SP(=S)(OC)OC)C(=O)OCC (stereo not drawn) yielded outcome of inactive
